We begin with a simple list: items and their reported pIC50.
Test system: SARS-CoV-2
METHOD: microbe, parasite or virus in culture
Type: cell-based
STUDY_CONDITIONS: Severe acute respiratory syndrome coronavirus 2, 120 h
Where a name gives a salt, the structure may show the parent alone.
FYI, pIC50 means -log10 of a concentration in mol per litre.

Answered examples (2):
Query :: Given the entry CN(C)c1cccc(-c2c3c(=O)n(-c4ccccc4Cl)[nH]c3cc(=O)n2C)c1 , report its measured pIC50.
Result :: 5.12

Query :: Look up pIC50 for this molecule: CC(C)C(=O)OCC(=O)[C@@]12O[C@H](C3CCCCC3)O[C@@H]1C[C@H]1[C@@H]3CCC4=CC(=O)C=C[C@]4(C)[C@H]3[C@@H](O)C[C@@]12C
Result :: 4.33

Others:
Query :: Please give the measured pIC50 for this molecule: CCCCOCCOc1ccc(-c2ccc3c(c2)C=C(C(=O)Nc2ccc([S@@+]([O-])Cc4cncn4CCC)cc2)CCCN3CC(C)C)cc1
Result :: 4.26

Query :: Which pIC50 is reported for this molecule? CN1[C@@H]2CC[C@H]1C[C@@H](OC(=O)c1cc(Cl)cc(Cl)c1)C2
Result :: 4.36

Query :: Which pIC50 is reported for this molecule? CC(C)(C)C(=O)C(=Cc1cccc([N+](=O)[O-])c1)n1cncn1
Result :: 5.36

Query :: Query (molecule): O=C(O)c1ccc(N2C(=O)C(=Cc3ccc(-c4ccc([N+](=O)[O-])cc4)o3)C=C2c2ccccc2)cc1 ; field requested: pIC50
Result :: 3.63

Query :: What measured pIC50 goes with CCC(=C(c1ccc(O)cc1)c1ccc(OCCNC)cc1)c1ccccc1 [Compound 91, hydrochloride] ?
Result :: 5.20

----------
This listing pairs compounds with measured pIC50.
System: SARS-CoV-2
METHOD: microbe, parasite or virus in culture
Type: cell-based
STUDY_CONDITIONS: Severe acute respiratory syndrome coronavirus 2, 120 h
# reply with the number alone; pIC50 is -log10 of concentration in mol/L

Query :: Quick one: pIC50 for O=C(C1CC1)N1CC[C@@H](Cc2n[nH]c(=O)n2-c2ccc(-c3ccc4ccoc4c3)cc2)C1 [Compound 67] ?
Result :: 4.77

Query :: Could you share which pIC50 value was measured for CCN(CC)CCCCNc1ncc2cc(-c3c(Cl)cccc3Cl)c(NC(=O)NC(C)(C)C)nc2n1 [Compound 107] ?
Result :: 3.84

Query :: Entry C/C(=C\c1ccc(C(=O)O)cc1)c1ccc2c(c1)C(C)(C)CCC2(C)C [Compound 26] : reported pIC50 = ?
Result :: 4.47

Next:
Query :: Can you look up the measured pIC50 of CC(C)(C)c1cc(C=C(C#N)C#N)cc(Br)c1O [Compound 99] for me?
Result :: 5.14

----------
System: SARS-CoV-2
METHOD: microbe, parasite or virus in culture
Type: cell-based
STUDY_CONDITIONS: Severe acute respiratory syndrome coronavirus 2, 120 h
pIC50: −log10 of the molar value. Structures can show the parent of a compound that is named as a salt.
So basically: pIC50 at 4 or higher? That is 1. Lower than 4? That is -1.

Query :: Exam item: decide whether the reported pIC50 for CN(Cc1cnc2nc(N)nc(N)c2n1)c1ccc(C(=O)N[C@@H](CCC(=O)O)C(=O)O)cc1 [Compound 1] is at least 4.
Result :: 1

Query :: Tell me whether pIC50 is at least 4 here: CN(C)CCC=C1c2ccccc2C=Cc2ccccc21 [Compound 90, hydrochloride]
Result :: 1

Query :: Determine whether this compound has pIC50 no lower than 4: Cc1ccc(NC(=O)Nc2cc(C(F)(F)F)ccc2F)cc1Nc1ccc2c(c1)NC(=O)C2=Cc1ccc[nH]1 [Compound 92]
Result :: 1

Query :: Does pIC50 meet or surpass 4 for CC(C)C[C@H](NC(=O)CNC(=O)c1cc(Cl)ccc1Cl)B(O)O [Compound 108] ?
Result :: -1

Query :: Entry CC1=NN(c2ccc(C)c(C)c2)C(=O)/C1=N\Nc1cccc(-c2cccc(C(=O)O)c2)c1O [Compound 37] : is its pIC50 no less than 4?
Result :: 1

Query :: Reported pIC50 reaches at least 4 for CCCc1c(-c2ccc(O)cc2)nn(-c2ccc(O)cc2)c1-c1ccc(O)cc1 [Compound 88] ?
Result :: 1
